Measured values drawn from patent US6864373B2 for this set.

Assay: Solubility of celecoxib in aqueous media
Assay type: physicochemical
Method: However, celecoxib presents certain challenges for formulation as a rapid-onset dosage form, particularly as a rapid-onset oral dosage form. For example, celecoxib has very low solubility in aqueous media (about 2 to about 5 μg/ml) and therefore is not readily dissolved and dispersed for rapid absorption in the gastrointestinal tract when administered orally, for example in tablet or capsule form. […]
Measure: solubility

[
  {
    "Molecule": "Cc1ccc(-c2cc(C(F)(F)F)nn2-c2ccc(S(N)(=O)=O)cc2)cc1",
    "Result": "2 to 5 µg/mL"
  }
]
